# Tested on: MCF7 human breast tumor cells
# assay: CellTiter-Glo luminescent cell viability assay, MCF7
# Assay type: cell-based
# condition.label: 48 hours, 20 to 0.1 μM
Recorded IC50 by entry

Answered examples (5):
* CN1CCN(c2ccc3nc(-c4ccc(OCc5ccccc5)cc4O)[nH]c3c2)CC1 | 10 to 15 µM
* COc1ncccc1-c1ccc(O)c(-c2nc3ccc(C(=O)Nc4ccc(CCN5CCN(C)CC5)cc4)cc3[nH]2)c1 | 5 to 10 µM
* COc1ccc2c(c1)CCc1cnc(-n3cc(C(=O)Nc4ccc(CCN5CCC(N)CC5)cc4)c(N)n3)nc1-2 | > 25 µM
* CN1CCN(c2ccc3nc(-c4cc(-c5cccnc5)ccc4O)[nH]c3c2)CC1 | 10 to 15 µM
* CN1CCN(CCc2ccc(NC(=O)c3cn(-c4nccc(-c5ccc(N(C)C)cc5)n4)nc3N)cc2)CC1 | 10 to 15 µM

Prompt line: So what does the record say about IC50 for COc1ccc2c(c1)CCc1cnc(-n3cc(C(=O)NCCc4c[nH]c5ccccc45)c(N)n3)nc1-2 ?
Response line: 5 to 10 µM

Prompt line: Query: IC50; subject: COc1ccc2c(c1)CCc1cnc(-n3cc(C(=O)NC4CCN(CCCc5ccncc5)CC4)c(N)n3)nc1-2
Response line: 5 to 10 µM

Prompt line: Requested field: IC50. Item: CN1CCN(Cc2cccc(NC(=O)c3cc(N)n(-c4ncc5c(n4)-c4ccccc4CC5)n3)c2)CC1
Response line: 10 to 15 µM

Prompt line: Using the record for COc1ncccc1-c1ccc(O)c(-c2nc3ccc(C(=O)Nc4ccc(CCN5CCCC6(CCCN(C)C6)C5)cc4)cc3[nH]2)c1 (stereo not shown) , report its IC50.
Response line: 5 to 10 µM

Prompt line: Give the measured IC50 of COc1ccc2c(c1)CCc1cnc(-n3cc(C(=O)NCc4nc5ccccc5[nH]4)c(N)n3)nc1-2 .
Response line: 5 to 10 µM

----------
The reader will find reported IC50 values listed item by item below.
# Tested on: MCF7 human breast tumor cells
# assay: CellTiter-Glo luminescent cell viability assay, MCF7
# Format: cell-based
# condition.label: 48 hours, 20 to 0.1 μM

• CN1CCN(CCc2ccc(NC(=O)c3cn(-c4ncc5c(n4)-c4cc(Cl)ccc4OC5)nc3N)cc2)CC1 = 10 to 15 µM
• COc1ncccc1-c1ccc2[nH]c(-c3nc4cc(N5CCN(C)CC5)ccc4[nH]3)nc2c1 = 10 to 15 µM
• CCN1CCC2(CCN(CCc3ccc(NC(=O)c4ccc5[nH]c(-c6cc(-c7cccnc7O)ccc6O)nc5c4)cc3)C2)C1 (centres unmarked) [drawing 1786] = 5 to 10 µM
• CN1CCN(c2ccc(NC(=O)c3ccc4nc(-c5ccc6ccccc6c5O)[nH]c4c3)cc2)CC1 = 10 to 15 µM
• CN1CCN(c2ccc3nc(-c4cc(-c5ccc(N(C)C)cc5)ccc4O)[nH]c3c2)CC1 = 10 to 15 µM
• CCN1CCC2(CCN(CCc3ccc(NC(=O)c4ccc5[nH]c(-c6cc(-c7cccnc7OC)ccc6O)nc5c4)cc3)C2)C1 (centres unmarked) = 10 to 15 µM

Prompt line: Param item = COc1ccc2c(c1)CCc1cnc(-n3cc(-c4nc5cc(N6CCN(C)CC6)ccc5[nH]4)c(N)n3)nc1-2 ; retrieve measured IC50.
Response line: 10 to 15 µM

Prompt line: Look at this compound and give its reported IC50. CN1CCN(c2ccc3nc(-c4cc(-c5ccccc5)ccc4O)[nH]c3c2)CC1
Response line: > 25 µM

----------
# Test system: NCI-H929 human plasmacytoma cells
# assay: CellTiter-Glo luminescent cell viability assay, NCI-H929
# Format: cell-based
# condition.label: 48 hours, 20 to 0.1 μM
property: IC50

Sample answers from the record:
- CN1CCN(Cc2cccc(NC(=O)c3cc(N)n(-c4ncc5c(n4)-c4ccccc4CC5)n3)c2)CC1: 10 to 15 µM
- COc1ncccc1-c1ccc2[nH]c(-c3nc4cc(C(=O)Nc5ccc(CCN6CCN(C)CC6)cc5)ccc4[nH]3)nc2c1: ≤ 5 µM
- Cc1cc(N2CCN(C)CC2)cc2nc(-c3nc4cc(N5CCN(C)CC5)cc(C)c4[nH]3)[nH]c12: 10 to 15 µM
- CCN1CCC2(CCN(c3cc(C)c4nc(-c5c(NC[C@@H](O)c6cccc(Cl)c6)cc[nH]c5=O)[nH]c4c3)C2)C1 (some centres unmarked): ≤ 5 µM
- CC1CCN(CCc2ccc(NC(=O)c3cn(-c4cccc(-c5ccc(N(C)C)cc5)n4)nc3N)cc2)CC1: 5 to 10 µM

# context switch: different compound, same IC50
Prompt line: Query: IC50; subject: COc1ncccc1-c1ccc2[nH]c(-c3nc4cc(N5CCN(C)CC5)ccc4[nH]3)nc2c1
Response line: ≤ 5 µM

----------
Below, each entry is listed alongside its reported pIC50.
# Test system: NCI-H929 human plasmacytoma cells
# assay: CellTiter-Glo luminescent cell viability assay, NCI-H929
# Assay type: cell-based
# condition.label: 48 hours, 20 to 0.1 μM
pIC50: −log10 of the molar value.

Example cases with answers are listed next.
* CN1CCN(CCc2ccc(NC(=O)c3cn(-c4ncc5c(n4)-c4cc(Cl)ccc4OC5)nc3N)cc2)CC1 | 5.00 to 5.30
* CN1CCN(c2ccc3nc(-c4cc(-c5ccccc5)ccc4O)[nH]c3c2)CC1 | 4.82 to 5.00
* COc1ncccc1-c1ccc(O)c(-c2nc3ccc(C(=O)Nc4ccc(CCN5CCCC6(CCCN(C)C6)C5)cc4)cc3[nH]2)c1 (centres unmarked) | ≥ 5.30

Prompt line: Bench note: what pIC50 did CN1CCN(c2ccc(NC(=O)c3ccc4nc(-c5ccc6ccccc6c5O)[nH]c4c3)cc2)CC1 show?
Response line: 5.00 to 5.30

Prompt line: Fill in the blank: the reported pIC50 of CN1CCN(c2ccc3nc(-c4cc(-c5ccc(N(C)C)cc5)ccc4O)[nH]c3c2)CC1 is ____.
Response line: 5.00 to 5.30

Prompt line: Requested read-out: pIC50. Entry: COc1ccc2c(c1)CCc1cnc(-n3cc(C(=O)NC4CCN(CCCc5ccncc5)CC4)c(N)n3)nc1-2
Response line: ≥ 5.30

Prompt line: Which pIC50 value is on record for COc1ccc2c(c1)CCc1cnc(-n3cc(C(=O)NCc4nc5ccccc5[nH]4)c(N)n3)nc1-2 ?
Response line: 5.00 to 5.30

Prompt line: Value lookup for pIC50; key = COc1ccc2c(c1)CCc1cnc(-n3cc(-c4nc5cc(N6CCN(C)CC6)ccc5[nH]4)c(N)n3)nc1-2
Response line: 5.00 to 5.30

Prompt line: If you can, please state the reported pIC50 value of CN1CCN(c2ccc3nc(-c4cc(-c5cccnc5)ccc4O)[nH]c3c2)CC1 .
Response line: 4.82 to 5.00

Prompt line: Endpoint output: pIC50 of CN1CCN(c2ccc3nc(-c4ccc(O)c(O)c4O)[nH]c3c2)CC1 . Value?
Response line: 4.82 to 5.00

Prompt line: Dear colleague, I am looking for the recorded pIC50 of the following molecule: CN1CCN(CCc2ccc(NC(=O)c3cn(-c4nccc(-c5ccc(N(C)C)cc5)n4)nc3N)cc2)CC1
Response line: 5.00 to 5.30
